// values below are reported Ki
target: dopamine D2 receptor (Homo sapiens, UniProt P14416); experiment: Dopamine receptor competitive binding, D2; details: calculated from the inhibition data
Sequence (P14416 whole entry, species assumed): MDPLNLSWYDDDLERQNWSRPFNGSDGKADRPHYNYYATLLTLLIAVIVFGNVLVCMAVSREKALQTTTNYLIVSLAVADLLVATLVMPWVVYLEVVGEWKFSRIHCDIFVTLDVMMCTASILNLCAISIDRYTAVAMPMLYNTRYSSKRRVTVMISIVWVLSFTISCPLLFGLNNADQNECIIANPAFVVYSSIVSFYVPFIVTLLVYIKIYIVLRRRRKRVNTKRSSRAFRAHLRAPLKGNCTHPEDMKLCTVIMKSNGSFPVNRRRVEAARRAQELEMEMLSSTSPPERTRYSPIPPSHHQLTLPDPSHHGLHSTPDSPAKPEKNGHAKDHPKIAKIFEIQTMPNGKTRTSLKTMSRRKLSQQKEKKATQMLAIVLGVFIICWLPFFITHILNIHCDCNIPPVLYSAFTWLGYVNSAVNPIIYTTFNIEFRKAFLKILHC
Where a name gives a salt, the structure may show the parent alone.
Write it as a number; the unit µM goes unstated.

Example cases with answers are listed next.
>  <COMPOUND>
COc1cc2c(cc1OC(C)=O)C1Cc3ccc(OC)c(OC(C)=O)c3CN1CC2 (stereo not shown)

>  <ASSAYED TARGET>
dopamine D2 receptor (Homo sapiens, UniProt P14416)

>  <REPORTED ENDPOINT>
Ki

>  <MEASURED>
10.6

$$$$
>  <COMPOUND>
COCCOCCOCC(=O)Oc1cc2c(cc1OC)CCN1Cc3c(c(Cl)cc(OC)c3OC(=O)COCCOCCOC)CC21 (stereo not shown)

>  <ASSAYED TARGET>
dopamine D2 receptor (Homo sapiens, UniProt P14416)

>  <REPORTED ENDPOINT>
Ki

>  <MEASURED>
14.9

$$$$
>  <COMPOUND>
COc1cc2c(cc1O)[C@@H]1Cc3c(Cl)cc(OC)c(O)c3CN1CC2 [l-CSLMS, S-chloroscoulerine mesylate, reference compound]

>  <ASSAYED TARGET>
dopamine D2 receptor (Homo sapiens, UniProt P14416)

>  <REPORTED ENDPOINT>
Ki

>  <MEASURED>
1.7

$$$$

From here, focus on the item given below.
Input line: Let me know recorded Ki for COc1cc2c(cc1O)C1Cc3c(Cl)cc(OC)c(OC(C)=O)c3CN1CC2 (stereo not shown) , thanks.
Output line: 6.9

* * *

target: dopamine D2 receptor (Homo sapiens, UniProt P14416); assay: Dopamine receptor competitive binding, D2; settings: tested at 1 × 10^−5 mol/L
Reported inhibition at 10 µM values for the following molecules.
Kindly answer with a numeric value in %, unit omitted.

>  <MOLECULE>
COc1cc2c(cc1OC(C)=O)C1Cc3ccc(OC)c(OC(C)=O)c3CN1CC2 (stereo not drawn)

>  <RESULT UNITS>
%

>  <MEASURED>
90.7

$$$$
>  <MOLECULE>
COCCOCCOCC(=O)Oc1cc2c(cc1OC)CCN1Cc3c(c(Cl)cc(OC)c3OC(=O)COCCOCCOC)CC21 (stereo not drawn)

>  <RESULT UNITS>
%

>  <MEASURED>
39.7

$$$$

Input line: Determine its reported inhibition at 10 µM: CCOC(=O)Oc1c(OC)cc(Cl)c2c1CN1CCc3cc(OC)c(O)cc3C1C2 (stereo not drawn)
Output line: 100

* * *

Entries and their Ki
Target: dopamine D1 receptor (Homo sapiens, UniProt P21728)
Sequence (P21728 whole entry): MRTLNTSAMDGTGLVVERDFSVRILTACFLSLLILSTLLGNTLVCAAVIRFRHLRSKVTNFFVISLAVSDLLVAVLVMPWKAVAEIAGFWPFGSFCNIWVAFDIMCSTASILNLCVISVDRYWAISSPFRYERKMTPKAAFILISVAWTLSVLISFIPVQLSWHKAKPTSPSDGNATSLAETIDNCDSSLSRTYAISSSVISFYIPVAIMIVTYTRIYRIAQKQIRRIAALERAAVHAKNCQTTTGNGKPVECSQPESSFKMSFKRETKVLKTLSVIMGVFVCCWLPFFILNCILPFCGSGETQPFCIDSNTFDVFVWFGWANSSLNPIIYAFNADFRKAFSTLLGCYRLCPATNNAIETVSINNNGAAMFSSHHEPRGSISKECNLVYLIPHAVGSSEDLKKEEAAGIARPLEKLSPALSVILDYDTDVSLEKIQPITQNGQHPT
Assay: Dopamine receptor competitive binding, D1
Details: calculated from the inhibition data
Protocol: 1. Dopamine Receptor Binding Studies The Ki is calculated according the inhibition data tested.
Provide only the numeric value, understood in nM.

>  <COMPOUND>
COc1cc2c(cc1OC(C)=O)C1Cc3ccc(OC)c(OC(C)=O)c3CN1CC2 (stereo not drawn)

>  <Ki, nM>
51.8

$$$$
>  <COMPOUND>
COCCOCCOCC(=O)Oc1cc2c(cc1OC)CCN1Cc3c(c(Cl)cc(OC)c3OC(=O)COCCOCCOC)CC21 (stereo not drawn)

>  <Ki, nM>
35.4

$$$$
>  <COMPOUND>
COc1cc2c(cc1O)C1Cc3c(Cl)cc(OC)c(OC(C)=O)c3CN1CC2 (stereo not drawn)

>  <Ki, nM>
10.7

$$$$
>  <COMPOUND>
CCOC(=O)Oc1c(OC)cc(Cl)c2c1CN1CCc3cc(OC)c(O)cc3C1C2 (stereo not drawn)

>  <Ki, nM>
2.6

$$$$
>  <COMPOUND>
COCCOCCOCC(=O)Oc1c(OC)cc(Cl)c2c1CN1CCc3cc(OC)c(O)cc3C1C2 (stereo not drawn)

>  <Ki, nM>
404

$$$$

Next compound, Ki to be filled in.
Input line: Using the record for COc1cc2c(cc1O)C1Cc3c(Cl)cc(OC)c(O)c3CN1CC2 (stereo not drawn) [CSL, reference compound] , state its measured Ki.
Output line: 6.1
